List of HDAC 9 inhibitory activity values.
- EXPERIMENTAL_TARGET: Recombinant human HDAC9 (Homo sapiens, UniProt Q9UKV0)
- Construct: purchased BPS Biosciences
- Sequence (Q9UKV0 whole entry): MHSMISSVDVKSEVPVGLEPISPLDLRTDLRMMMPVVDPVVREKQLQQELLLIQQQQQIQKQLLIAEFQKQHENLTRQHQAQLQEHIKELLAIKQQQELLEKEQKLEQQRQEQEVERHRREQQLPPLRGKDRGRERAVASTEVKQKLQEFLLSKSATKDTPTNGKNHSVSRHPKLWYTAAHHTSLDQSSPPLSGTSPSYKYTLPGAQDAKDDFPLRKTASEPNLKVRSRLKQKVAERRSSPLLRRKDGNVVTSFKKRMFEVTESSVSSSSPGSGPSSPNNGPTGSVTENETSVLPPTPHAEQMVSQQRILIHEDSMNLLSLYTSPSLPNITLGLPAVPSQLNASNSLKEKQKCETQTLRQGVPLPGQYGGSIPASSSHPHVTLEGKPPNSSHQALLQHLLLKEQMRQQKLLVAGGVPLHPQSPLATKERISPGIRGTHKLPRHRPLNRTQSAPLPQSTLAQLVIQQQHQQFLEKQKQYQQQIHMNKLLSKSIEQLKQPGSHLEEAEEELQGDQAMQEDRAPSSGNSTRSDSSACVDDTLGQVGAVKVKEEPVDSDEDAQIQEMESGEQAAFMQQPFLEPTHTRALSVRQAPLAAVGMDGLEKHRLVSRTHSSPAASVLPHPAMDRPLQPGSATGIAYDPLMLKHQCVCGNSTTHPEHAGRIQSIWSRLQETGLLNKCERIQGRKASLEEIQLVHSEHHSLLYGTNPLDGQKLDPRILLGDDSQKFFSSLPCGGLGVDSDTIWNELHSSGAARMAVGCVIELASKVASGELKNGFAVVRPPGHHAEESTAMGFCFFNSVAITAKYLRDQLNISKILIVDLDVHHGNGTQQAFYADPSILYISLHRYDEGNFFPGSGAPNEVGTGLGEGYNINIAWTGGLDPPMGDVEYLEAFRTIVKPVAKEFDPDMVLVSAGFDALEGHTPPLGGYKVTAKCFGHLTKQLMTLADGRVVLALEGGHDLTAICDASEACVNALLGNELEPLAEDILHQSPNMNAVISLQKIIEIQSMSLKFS
- METHOD_SUMMARY: HDAC inhibitory assay, HDAC9 (Boc-Lys(Tfa)-AMC substrate)
- Format: biochemical
- CONDITION: test concentration not given; average of triplicate
- Procedure: The compounds of Examples 1-12 and 14-16 were evaluated for their ability to act as inhibitors of human HDAC. The compound of Example 13 was not tested. Recombinant human HDAC1, HDAC2, HDAC3/NcoR2, HDAC5, HDAC6, HDAC8, HDAC9, HDAC10 and HDAC11 were purchased from BPS Biosciences. Recombinant human HDAC4 and HDAC7 were purchased from Millipore. The substrate Boc-Lys(Ac)-AMC and Boc-Lys(Tfa)-AMC were purchased from Bachem. The substrate Ac-RHK(Ac)K(Ac)-AMC was purchased from Enzo Life Sciences. […]
QUANTITY_NAME: HDAC 9 inhibitory activity

> print(dat)
                               smiles.input               quantity.name  observed.value
1  O=C(NCCCCNC(=S)NCCC(c1ccccc1)c1ccccc1)c1coc(-c2ccccc2O)n1  HDAC 9 inhibitory activity           70.2%
2  O=C(O)c1ccc(CNC(=O)c2coc(-c3ccccc3O)n2)cc1  HDAC 9 inhibitory activity           26.3%
3  O=C(NC(c1ccccc1)c1ccccc1)c1coc(-c2ccccc2O)n1  HDAC 9 inhibitory activity           33.3%
4  O=C(Nc1ccc(-c2ccccc2)cc1)c1coc(-c2ccccc2O)n1  HDAC 9 inhibitory activity           32.4%
5         O=C(Nc1ccccc1)c1coc(-c2ccccc2O)n1  HDAC 9 inhibitory activity           20.5%
